# Target Or Test System: T1, Antigen CD66c (CEACAM6; Sino Biological, Inc.) (UniProt P40199 35-320)
# T1 construct: Bought antigen, coated on the ELISA plate; construct not described; also called CECACAM6 (CD66c) antigen; CD66c antigen
# T1 sequence (looked up): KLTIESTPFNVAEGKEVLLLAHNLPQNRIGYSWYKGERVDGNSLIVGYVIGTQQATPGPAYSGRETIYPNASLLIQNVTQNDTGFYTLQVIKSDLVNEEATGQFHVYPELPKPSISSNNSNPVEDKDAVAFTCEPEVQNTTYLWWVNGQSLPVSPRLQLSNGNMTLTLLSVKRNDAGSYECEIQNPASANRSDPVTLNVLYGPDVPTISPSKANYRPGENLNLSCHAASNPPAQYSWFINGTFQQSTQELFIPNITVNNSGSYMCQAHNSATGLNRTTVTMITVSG
# Assay Info: ELISA, CEACAM6 coated 100 ng/well, antibody at 1.52 ng/ml
Values of OD 450 nm strictly less than 0.7 OD 450 nm map to true (1), and values of at least 0.7 OD 450 nm map to false (0).

Worked examples, 2 binders total:
recombinant humanized anti-CD66c antibody Protein ID 3007 (Vk7 + VH6) (antibody, human IgG1, V domains shown, also called hu 3007; #43) VH: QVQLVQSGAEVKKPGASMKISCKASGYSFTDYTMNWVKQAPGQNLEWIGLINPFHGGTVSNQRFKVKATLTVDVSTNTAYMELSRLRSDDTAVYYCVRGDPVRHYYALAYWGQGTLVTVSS VL: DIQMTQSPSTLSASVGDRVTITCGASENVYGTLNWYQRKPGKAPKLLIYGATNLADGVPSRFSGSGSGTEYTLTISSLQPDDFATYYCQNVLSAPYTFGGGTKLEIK ... false (0)
anti-CD66c chimeric antibody 8F5 (antibody, human IgG1, V domains shown, also called chimeric 8F5; chi 8F5) VH: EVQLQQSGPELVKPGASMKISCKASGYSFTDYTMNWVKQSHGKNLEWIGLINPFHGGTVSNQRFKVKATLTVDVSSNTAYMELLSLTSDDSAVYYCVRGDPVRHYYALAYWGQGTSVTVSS VL: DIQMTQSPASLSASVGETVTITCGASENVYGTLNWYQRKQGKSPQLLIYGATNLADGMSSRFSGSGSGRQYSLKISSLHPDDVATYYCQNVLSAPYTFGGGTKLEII ... true (1)

# TODO verify OD 450 nm < 0.7 OD 450 nm strictly for this binder: recombinant humanized anti-CD66c antibody Protein ID 3019 (Vk7 + VH10) (antibody, human IgG1, V domains shown, also called hu 3019; #51) VH: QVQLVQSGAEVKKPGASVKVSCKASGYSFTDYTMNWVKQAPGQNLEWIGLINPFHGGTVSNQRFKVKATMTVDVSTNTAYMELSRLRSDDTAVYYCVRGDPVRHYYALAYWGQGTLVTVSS VL: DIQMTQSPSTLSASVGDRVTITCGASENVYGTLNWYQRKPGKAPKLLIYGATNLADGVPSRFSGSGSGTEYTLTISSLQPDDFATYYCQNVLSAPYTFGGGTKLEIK false (0)

# TODO verify OD 450 nm < 0.7 OD 450 nm strictly for this binder: recombinant humanized anti-CD66c antibody Protein ID 2938 (Vk5 + VH7) (antibody, human IgG1, V domains shown, also called hu 2938) VH: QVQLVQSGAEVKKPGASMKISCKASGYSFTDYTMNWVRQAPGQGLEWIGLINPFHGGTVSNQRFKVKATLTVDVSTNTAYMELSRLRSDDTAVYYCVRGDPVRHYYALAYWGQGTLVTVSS VL: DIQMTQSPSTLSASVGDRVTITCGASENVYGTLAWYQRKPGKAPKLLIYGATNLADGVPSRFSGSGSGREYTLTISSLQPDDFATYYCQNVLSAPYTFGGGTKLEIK true (1)
